The reported measurements were obtained from patent EP0726261A1.

test system: Amaranthus retroflexus; test: Postemergence herbicidal activity (Example 67); type: in vivo; conditions: pos; 800 g/ha; rated after 10-21 days
VALUE_TYPE: herbicide rating, AMARE
Enter the number alone.

MOLECULE: CCCCc1nsc(C(=O)NCc2cccs2)n1 [Example 31]
ASSAY_TARGET: Amaranthus retroflexus
MEASURED_VALUE: 0

Query string: Supply herbicide rating, AMARE value. Item: COc1ccc(-c2nsc(C(=O)NC(C)c3ccc(C)s3)n2)cc1 (racemic) [Example 37]
Result string: 0

Query string: Given the molecule COc1ccc(-c2nsc(C(=O)N[C@@H](C)c3ccccc3)n2)cc1 [Example 2] , write its reported herbicide rating, AMARE.
Result string: 0

Query string: Check the records and state herbicide rating, AMARE for COCCc1nsc(C(=O)NC(C)c2cccs2)n1 (racemic) [Example 33]
Result string: 0

====

TRZ AW rating listing for selected compounds.
system: Triticum aestivum; test: Preemergence herbicidal activity (Example 67); type: in vivo; settings: pre, 800 g/ha

Observe how each entry below is paired with its result.
COMPOUND: C[C@H](NC(=O)c1nsc(-c2ccccc2)n1)c1ccccc1
TRZ AW rating: 2 (6-15%)

COMPOUND: CC(NC(=O)c1nsc(-c2ccccc2F)n1)c1cccs1 (racemic)
TRZ AW rating: 2 (6-15%)

COMPOUND: O=C(Nc1ccc(F)cc1)c1nsc(-c2cccc(C(F)(F)F)c2)n1
TRZ AW rating: 2 (6-15%)

Query string: # return recorded TRZ AW rating for input "O=C(Nc1cccc(F)c1)c1nsc(-c2cccc(C(F)(F)F)c2)n1"
Result string: 2 (6-15%)

Query string: Give TRZ AW rating for the following compound: "C[C@H](NC(=O)c1nsc(-c2cccc(C(F)(F)F)c2)n1)c1ccccc1"
Result string: 0

Query string: Indicate its recorded TRZ AW rating; the compound in question is "O=C(NCc1cccs1)c1nc(-c2c(F)cccc2F)ns1"
Result string: 0

====

Listed next: entries and their corresponding TRZ AW rating.
System: Triticum aestivum
Assay: Preemergence herbicidal activity (Example 67)
Type: in vivo
Conditions: pre, 800 g/ha
Method: Herbicidal evaluation of compounds of the invention is conducted on the following plant species: The soil is a prepared horticultural substrate containing 30% peat, 20% volcanic clay, 30% bark residues and 20% polyamide/styromull in a 1:3 mixture with loamy sand. […] After 10-21 days, the treated plants are evaluated and rated according to the rating system provided below. […]
Respond with the number and no other words.

Query string: Could you please provide reported TRZ AW rating for CC(NC(=O)c1nc(-c2cccc(F)c2)ns1)c1cccs1 (racemic) ? Thanks!
Result string: 0

====

system: Avena fatua; test: Herbicidal activity, postemergence test (Example 66); assay type: in vivo; conditions: post; 1000 g/ha; assessed visually twenty days after spraying
Known herbicidal effects on a 0-9 scale, AVEFA of a selection of compounds

Consider the following illustrative entries.
COMPOUND: CC(NC(=O)c1nc(-c2cccc(C(F)(F)F)c2)ns1)c1cccs1 (racemic)
herbicidal effects on a 0-9 scale, AVEFA: 7

COMPOUND: CCNC(=O)c1nc(-c2ccc(F)cc2)ns1
herbicidal effects on a 0-9 scale, AVEFA: 4

COMPOUND: CC(C)c1nsc(C(=O)N[C@@H](C)c2ccccc2)n1
herbicidal effects on a 0-9 scale, AVEFA: 5

COMPOUND: CC(C)Cc1nsc(C(=O)NCc2cccs2)n1
herbicidal effects on a 0-9 scale, AVEFA: 0

COMPOUND: CC(NC(=O)c1nsc(-c2ccc(Cl)cc2)n1)c1cccs1 (racemic)
herbicidal effects on a 0-9 scale, AVEFA: 4

Query string: Look up Avena fatua data: herbicidal effects on a 0-9 scale, AVEFA of "CC(C)(C)c1nsc(C(=O)NCc2cccs2)n1" , then report it.
Result string: 0
